Test system: E. coli UBMS 89-2 (Sensitive)
Assay: MIC, agar dilution
Format: cell-based
Settings: E. coli UBMS 89-2 (Sensitive)
assay metric: MIC

                                   compound  readout_value
0  CN(C)c1cc(NC(=O)CO)c(O)c2c1CC1CC3C(N(C)C)C(O)=C(C(N)=O)C(=O)C3(O)C(O)=C1C2=O (stereo not shown)      >32 µg/mL
1  CN(C)CC(=O)Nc1cc(N(C)C)c2c(c1O)C(=O)C1=C(O)C3(O)C(=O)C(C(N)=O)=C(O)C(N(C)C)C3CC1C2.O=S(=O)(O)O (stereo not shown)     0.25 µg/mL
2  CN(C)c1cc(NS(C)(=O)=O)c(O)c2c1CC1CC3C(N(C)C)C(O)=C(C(N)=O)C(=O)C3(O)C(O)=C1C2=O (stereo not shown)        2 µg/mL
3  CN(C)c1cc(NC(=O)c2ccc([N+](=O)[O-])cc2)c(O)c2c1CC1CC3C(N(C)C)C(O)=C(C(N)=O)C(=O)C3(O)C(O)=C1C2=O (stereo not shown)      >32 µg/mL
4  CN(C)c1cc(NC(=O)c2ccco2)c(O)c2c1CC1CC3C(N(C)C)C(O)=C(C(N)=O)C(=O)C3(O)C(O)=C1C2=O (stereo not shown)      >32 µg/mL
5  CN(C)c1cc(NC(=O)c2c(F)c(F)c(F)c(F)c2F)c(O)c2c1CC1CC3C(N(C)C)C(O)=C(C(N)=O)C(=O)C3(O)C(O)=C1C2=O (stereo not shown)      >32 µg/mL
6  CN(C)C1C(O)=C(C(N)=O)C(=O)C2(O)C(O)=C3C(=O)c4c(O)c(NC=O)cc(I)c4CC3CC12.O=S(=O)(O)O (stereo not shown)        1 µg/mL

###

System: E. coli UBMS 89-2 (Sensitive)
Assay: MIC, agar dilution
Type: cell-based
Details: E. coli UBMS 89-2 (Sensitive)
assay metric: log10 MIC (log10 of the value in µg/mL)

compound	target system	readout value
CN(C)c1cc(N(C)C)c2c(c1O)C(=O)C1=C(O)C3(O)C(=O)C(C(N)=O)=C(O)C(N(C)C)C3CC1C2 (stereo not drawn) [C]	E. coli UBMS 89-2 (Sensitive)	-0.30
CN(C)c1cc(NC(=O)CN)c(O)c2c1CC1CC3C(N(C)C)C(O)=C(C(N)=O)C(=O)C3(O)C(O)=C1C2=O.O=C(O)C(F)(F)F (stereo not drawn) [M]	E. coli UBMS 89-2 (Sensitive)	0.30
CN(C)c1cc(NS(=O)(=O)c2cccc([N+](=O)[O-])c2)c(O)c2c1CC1CC3C(N(C)C)C(O)=C(C(N)=O)C(=O)C3(O)C(O)=C1C2=O (stereo not drawn) [BB]	E. coli UBMS 89-2 (Sensitive)	1.20
CC(=O)OCC(=O)Nc1cc(N(C)C)c2c(c1O)C(=O)C1=C(O)[C@]3(O)C(=O)C(C(N)=O)=C(O)[C@@H](N(C)C)[C@@H]3C[C@@H]1C2 [K]	E. coli UBMS 89-2 (Sensitive)	0.90
CN(C)c1cc(NS(=O)(=O)c2ccccc2)c(O)c2c1CC1CC3C(N(C)C)C(O)=C(C(N)=O)C(=O)C3(O)C(O)=C1C2=O (stereo not drawn) [CC]	E. coli UBMS 89-2 (Sensitive)	1.20
CN(C)c1cc(NS(=O)(=O)c2ccc([N+](=O)[O-])cc2)c(O)c2c1CC1CC3C(N(C)C)C(O)=C(C(N)=O)C(=O)C3(O)C(O)=C1C2=O (stereo not drawn) [AA]	E. coli UBMS 89-2 (Sensitive)	1.20
CCN(CC)c1cc(NC(C)=O)c(O)c2c1CC1CC3C(N(C)C)C(O)=C(C(N)=O)C(=O)C3(O)C(O)=C1C2=O (stereo not drawn) [F]	E. coli UBMS 89-2 (Sensitive)	1.51
CCN(CC)c1cc(NC=O)c(O)c2c1C[C@H]1C[C@H]3[C@H](N(C)C)C(O)=C(C(N)=O)C(=O)[C@@]3(O)C(O)=C1C2=O.O=S(=O)(O)O.O=S(=O)(O)O [D]	E. coli UBMS 89-2 (Sensitive)	-0.30
CN(C)c1cc(NS(=O)(=O)c2cccs2)c(O)c2c1CC1CC3C(N(C)C)C(O)=C(C(N)=O)C(=O)C3(O)C(O)=C1C2=O (stereo not drawn) [DD]	E. coli UBMS 89-2 (Sensitive)	1.20
COC(=O)Nc1cc(N(C)C)c2c(c1O)C(=O)C1=C(O)[C@]3(O)C(=O)C(C(N)=O)=C(O)[C@@H](N(C)C)C3CC1C2 (stereo partly drawn) [HH]	E. coli UBMS 89-2 (Sensitive)	0.60

###

Tested on: S. aureus UBMS 88-7 (tetK)
Assay: MIC, agar dilution
Format: cell-based
Details: S. aureus UBMS 88-7 TetK; Table IA; unit assumed
Structures can show the parent of a compound that is named as a salt.
As shown below, each of these compounds has a reported Antibacterial activity (MIC) value.

compound	unit annotation	censoring operator	Antibacterial activity (MIC)
CN(C)CC(=O)Nc1cc(N(C)C)c2c(c1O)C(=O)C1=C(O)[C@]3(O)C(=O)C(C(N)=O)=C(O)[C@@H](N(C)C)C3CC1C2.Cl.Cl (stereo partly shown) [KK]	µg/mL	=	0.25
CNC(C)C(=O)Nc1cc(N(C)C)c2c(c1O)C(=O)C1=C(O)[C@]3(O)C(=O)C(C(N)=O)=C(O)[C@@H](N(C)C)C3CC1C2.Cl.Cl (stereo partly shown) [YY]	µg/mL	=	4
CN(C)c1cc(NC(=O)CN2CCCC2)c(O)c2c1CC1CC3[C@H](N(C)C)C(O)=C(C(N)=O)C(=O)[C@@]3(O)C(O)=C1C2=O (stereo partly shown) [SS, dihydrochloride]	µg/mL	=	0.5
CN(C)c1cc(NC(=O)CNCC(=O)O)c(O)c2c1CC1CC3C(N(C)C)C(O)=C(C(N)=O)C(=O)C3(O)C(O)=C1C2=O (stereo not shown) [KKK]	µg/mL	>	32
CNCC(=O)Nc1cc(N(C)C)c2c(c1O)C(=O)C1=C(O)[C@]3(O)C(=O)C(C(N)=O)=C(O)[C@@H](N(C)C)C3CC1C2.Cl.Cl (stereo partly shown) [MM]	µg/mL	=	16
CN(C)c1cc(NC(=O)CNC2CC2)c(O)c2c1CC1CC3C(N(C)C)C(O)=C(C(N)=O)C(=O)C3(O)C(O)=C1C2=O.Cl.Cl (stereo not shown) [QQ]	µg/mL	=	4
CN(C)c1cc(NC(=O)CN2CCC2)c(O)c2c1CC1CC3C(N(C)C)C(O)=C(C(N)=O)C(=O)C3(O)C(O)=C1C2=O (stereo not shown) [LLL]	µg/mL	=	2
CN(C)c1cc(NC(=O)CBr)c(O)c2c1CC1CC3[C@H](N(C)C)C(O)=C(C(N)=O)C(=O)[C@@]3(O)C(O)=C1C2=O.Cl.Cl (stereo partly shown) [III]	µg/mL	=	2
CN(C)CC(=O)Nc1cc(N(C)C)c2c(c1O)C(=O)C1=C(O)C3(O)C(=O)C(C(N)=O)=C(O)C(N(C)C)C3CC1C2 (stereo not shown) [LL]	µg/mL	=	0.5
CC(C)CNCC(=O)Nc1cc(N(C)C)c2c(c1O)C(=O)C1=C(O)C3(O)C(=O)C(C(N)=O)=C(O)C(N(C)C)C3CC1C2.Cl.Cl (stereo not shown) [TT]	µg/mL	=	2
CCCCCNCC(=O)Nc1cc(N(C)C)c2c(c1O)C(=O)C1=C(O)C3(O)C(=O)C(C(N)=O)=C(O)C(N(C)C)C3CC1C2.Cl.Cl (stereo not shown) [DDD]	µg/mL	=	2
CN(C)CC(=O)Nc1cc(N(C)C)c2c(c1O)C(=O)C1=C(O)[C@]3(O)C(=O)C(C(=O)NCN4CCCCC4)=C(O)[C@@H](N(C)C)C3CC1C2 (stereo partly shown) [HHH]	µg/mL	=	0.5
CN(C)c1cc(NC(=O)Cn2ccnc2)c(O)c2c1CC1CC3[C@H](N(C)C)C(O)=C(C(N)=O)C(=O)[C@@]3(O)C(O)=C1C2=O.Cl.Cl (stereo partly shown) [VV]	µg/mL	=	32

###

System: S. aureus UBMS 88-4 (Sensitive)
Assay: MIC, agar dilution
Type: cell-based
Settings: S. aureus UBMS 88-4 (Sensitive)
As shown below, each of these compounds has a reported MIC value.
assay metric: MIC (µg/mL)

>>> print(df.to_string())
                                   compound  assay_metric  censoring_operator  readout_value
0  CN(C)c1cc(NC(=O)c2ccccc2F)c(O)c2c1CC1CC3C(N(C)C)C(O)=C(C(N)=O)C(=O)C3(O)C(O)=C1C2=O (centres unmarked) [S]           MIC                   =              2
1  CN(C)c1cc(NC(=O)c2ccccc2)c(O)c2c1CC1CC3C(N(C)C)C(O)=C(C(N)=O)C(=O)C3(O)C(O)=C1C2=O (centres unmarked) [P]           MIC                   =              4
2  CN(C)C1C(O)=C(C(N)=O)C(=O)C2(O)C(O)=C3C(=O)c4c(O)c(NC=O)cc(I)c4CC3CC12.O=S(=O)(O)O (centres unmarked) [G]           MIC                   <          0.015
3  CN(C)c1cc(NS(=O)(=O)c2ccccc2)c(O)c2c1CC1CC3C(N(C)C)C(O)=C(C(N)=O)C(=O)C3(O)C(O)=C1C2=O (centres unmarked) [CC]           MIC                   =           0.03
4  CN(C)c1cc(NC=O)c(O)c2c1CC1CC3C(N(C)C)C(O)=C(C(N)=O)C(=O)C3(O)C(O)=C1C2=O (centres unmarked) [Compound A]           MIC                   <          0.015
